parameterMeasured: melting point

Please review the entries below; each comes with its answer.
[[record]]
compound = "Cc1c(C)[n+](OCc2ccccc2)cn1Cc1ccc(C(F)(F)F)cc1.[Br-] [Compound 8d]"
assayresult = "180 to 182 °C (dec.)"

[[record]]
compound = "Cc1cc(C)cc(CO[n+]2cn(Cc3cccc(C(F)(F)F)c3)c(-c3ccccc3)c2-c2ccccc2)c1.[Br-]"
assayresult = "156 to 158 °C"

[[record]]
compound = "Cc1c(C)[n+](OCc2ccccc2)cn1Cc1cccc(OC(F)(F)F)c1.[Br-] [Compound 8b]"
assayresult = "108 to 110 °C"


Attention now shifts to the item below.
Request: Would you kindly share the measured melting point for Cc1c(C)[n+](Cc2cccc(OC(F)(F)F)c2)cn1Cc1ccccc1.[Cl-] [Compound 1f] ?
Result: 108 to 110 °C
